- Tested on: HCT116 cells
- assay_name: Measurement of effect of inhibiting cancer cell proliferation (MTT)
- Format: cell-based
- cond: Homo sapiens, HCT-116, 48 hours
assay_metric: GI50 (µM)

These solved cases illustrate the format of a correct answer.
Problem: Endpoint output: GI50 of Cl.N=C(NC(=N)N1CCCC1)NC1CCCCCC1 [Example 17, hydrochloride] . Value?
Solution: 41

Problem: Can you look up the measured GI50 of Cl.N=C(NCc1ccc(C(F)(F)F)c(F)c1)NC(=N)N1CCCCC1 [Example 46, hydrochloride] for me?
Solution: 21.3

Problem: // query GI50 value for entry Cl.N=C(NCc1ccc(Cl)cc1)NC(=N)N1CCCCCC1 [Example 33, hydrochloride]
Solution: 4.9

(I) Cl.N=C(NC(=N)N1CCCCC1)NC1CCCCCC1 [Example 18, hydrochloride]
(II) Cc1ccc(CNC(=N)NC(=N)N2CCCCC2)cc1.Cl [Example 27, hydrochloride]
(III) Cl.N=C(NCc1ccc(OC(F)(F)F)c(Cl)c1)NC(=N)N1CCCCC1 [Example 50, hydrochloride]
(IV) Cl.N=C(NCc1ccc(Cl)cc1Cl)NC(=N)N1CCCCC1 [Example 53, hydrochloride]
(V) Cl.N=C(NCc1ccc(C(F)(F)F)cc1)NC(=N)N1CCC1 [Example 37, hydrochloride]
Problem: Hey, quick one: sort these by GI50, largest value first please. Provide the labels, sequenced as the question asks.
Solution: II, V, I, IV, III
(II: 70.5 µM, V: 39.3 µM, I: 23.1 µM, IV: 9.1 µM, III: 5.7 µM)

(1) Cl.N=C(NCc1ccc(C(F)(F)F)cc1)NC(=N)N1CCCC1 [Example 38, hydrochloride]
(2) Cl.N=C(NCc1ccc(F)c(F)c1)NC(=N)N1CCCCC1 [Example 52, hydrochloride]
Problem: Of 1 and 2 , which carries the smaller reported GI50 figure? Mark your selection by writing its label.
Solution: 1

(A) Cl.N=C(NCc1ccc(Br)cc1)NC(=N)N1CCCC1 [Example 34, hydrochloride]
(B) Cl.N=C(NCc1ccc(Cl)c(Cl)c1)NC(=N)N1CCCC1 [Example 54, hydrochloride]
Problem: // returns A or B , whichever has the lower GI50 // respond with label for picked entry
Solution: B
